These measurements were taken from PubChem BioAssay AID624255.

assay: T. cruzi intracellular proliferation inhibitors, primary screen, cell-based, beta-gal Tulahuen parasites, NIH3T3 host, luminescence (AID 624255); details: T. cruzi beta-gal in NIH3T3, GalScreen luminescence, 90 h; at 8.34 µM; hits give high values
About 4,600 (6%) of roughly 77,000 compounds were called active. About 1% were inconclusive and are not listed. The sample holds actives, similar compounds and a random draw of the others, so the mix is not that of the screen.
Measure: inhibition (%)
// note: answer is a bare numeric in %

C[C@@H](O)C#Cc1ccc([C@@H]2[C@H]3CN(S(=O)(=O)c4ccccc4)CCCCN3[C@H]2CO)cc1 ... 26.7
C[C@H](O)C#Cc1ccc([C@H]2[C@H]3CN(S(=O)(=O)Cc4ccccc4)CCCCN3[C@H]2CO)cc1 ... 110
CO[C@@H]1CN(C)C(=O)c2ccc(NC(=O)Nc3c(C)noc3C)cc2OC[C@H](C)N(CC2CC2)C[C@H]1C ... 91.1

The record that follows has no inhibition shown yet.
Enquiry: Entry CCCC#Cc1ccc([C@@H]2[C@H](CO)N3CCCCN(S(=O)(=O)c4ccccc4F)C[C@@H]23)cc1 has what inhibition?
Return: 37.8
